Values were extracted from PubChem BioAssay AID248.

Please provide measured T/C for the entries that follow.
test system: L1210 leukemia ip in BDF1 mice, survival T/C; assay: NCI In Vivo Anticancer Drug Screen. Data for tumor model L1210 Leukemia (intraperitoneal) in B6D2F1 (BDF1) mice; settings: endpoint: mean survival time; dose: 400.0 mg/kg/injection; schedule: Q01DX009 (ip); vehicle: Klucel (hydroxypropylcellulose) (HPC); higher = longer survival
Toxic doses and inconclusive results are not listed.

Examples with answers:
1. Cc1cccc(NC(=O)Oc2ccc(Nc3ccccc3)cc2)c1
98 % of control
2. O=S(=O)(NC1CCC(CC2CCCCC2)CC1)c1ccccc1 (stereo not given)
106 % of control
3. COc1cccc(C(=NC(=O)c2ccccc2)c2ccccc2)c1
91 % of control
4. Clc1ccc(C2OCCO2)cc1
107 % of control
5. O=C(Nc1ccc2ccccc2c1)Nc1ccccc1F
93 % of control
6. C=CCNC(=S)Nc1cc(Cl)ccc1OC
86 % of control

Kindly give each listed record's T/C.
1. CCCC(C)C(=O)c1ccccc1 (stereo not given)
2. O=C(CC(NC(=O)OCc1ccccc1)C(=O)OCc1ccccc1)OCc1ccccc1 (stereo not given)
3. CN(C)c1ccc(/C=C\C(=O)c2ccccc2)cc1
4. C[SiH]1c2ccccc2CCc2ccccc21
5. Cc1cc(C)c(NC(=O)c2ccco2)cc1C
6. CCOC(OCC)c1cc(=O)[nH]c(NC(C)=O)n1
7. COc1ccccc1/C(=C/c1ccc([N+](=O)[O-])cc1)C(=O)O

Completion:
1: 96 % of control; 2: 89 % of control; 3: 97 % of control; 4: 106 % of control; 5: 105 % of control; 6: 106 % of control; 7: 100 % of control
